The reported measurements were obtained from ChEMBL document CHEMBL1140791.

# assay.procedure: Cmax in mouse at 10 mg/kg, po
# Format: ADME, organism-based
# Design: dose 10 mg/kg, route oral
# test.conditions: in vivo
measure: Cmax (nM)
Reply with just the number (in nM).

The measured Cmax associated with "COC(=O)N1CC2(CC2)C[C@H](C(=O)NO)[C@H]1C(=O)N1CC=C(c2ccccc2)C1" reads 3000

----------
# study.target: Matrix metalloproteinase-9 (Homo sapiens, UniProt P14780)
# Sequence (P14780 whole entry): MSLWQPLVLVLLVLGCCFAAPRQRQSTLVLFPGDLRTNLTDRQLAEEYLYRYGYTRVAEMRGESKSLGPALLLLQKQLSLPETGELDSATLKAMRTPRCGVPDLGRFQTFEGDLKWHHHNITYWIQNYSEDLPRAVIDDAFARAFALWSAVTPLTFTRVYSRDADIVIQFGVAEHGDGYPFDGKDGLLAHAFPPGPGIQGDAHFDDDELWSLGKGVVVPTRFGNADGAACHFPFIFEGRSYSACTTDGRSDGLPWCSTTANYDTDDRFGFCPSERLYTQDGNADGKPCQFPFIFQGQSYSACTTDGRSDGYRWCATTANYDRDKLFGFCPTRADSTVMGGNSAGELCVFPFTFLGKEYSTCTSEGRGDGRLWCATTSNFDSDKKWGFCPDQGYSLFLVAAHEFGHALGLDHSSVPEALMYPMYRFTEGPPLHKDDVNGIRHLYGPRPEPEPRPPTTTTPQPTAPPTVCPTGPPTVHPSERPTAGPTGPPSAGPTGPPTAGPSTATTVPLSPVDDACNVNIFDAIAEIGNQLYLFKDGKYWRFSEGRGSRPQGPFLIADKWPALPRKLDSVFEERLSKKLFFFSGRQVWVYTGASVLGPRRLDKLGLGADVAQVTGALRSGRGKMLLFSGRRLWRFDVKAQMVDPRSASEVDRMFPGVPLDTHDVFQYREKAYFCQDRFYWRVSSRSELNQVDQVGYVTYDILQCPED
pIC50: −log10 of the molar value.
Label rule, in plain words: pIC50 of 6 and up is Criterion met, under 6 is Criterion not met.

Check the entry "CCc1cccc(C2=CCN(C(=O)[C@H]3NCC4(CC4)C[C@@H]3C(=O)NO)CC2)c1" : does pIC50 equal or exceed 6? Criterion met

Decide: is the reported value of pIC50 for O=C(NO)[C@H]1CC2(CC2)CN[C@@H]1C(=O)N1CCC(c2ccccc2)C1 (some centres undefined) equal to or greater than 6? Criterion not met

Check the entry "CC(C)c1cccc(C2=CCN(C(=O)[C@H]3NCC4(CC4)C[C@@H]3C(=O)NO)CC2)c1" : does pIC50 equal or exceed 6? Criterion not met

# check: pIC50 of "CC(=O)N1CC2(CC2)C[C@H](C(=O)NO)[C@H]1C(=O)N1CC=C(c2ccccc2)CC1" is greater than or equal to 6 Criterion met

Given the entry "Cc1cccc(C2CCN(C(=O)[C@H]3NCC4(CC4)C[C@@H]3C(=O)NO)CC2)c1" , answer whether its pIC50 meets or surpasses 6. Criterion met

Is the recorded value of pIC50 equal to or greater than 6 for this compound? "O=C(NO)[C@H]1CC2(CC2)CN(C(=O)OC2CCOCC2)[C@@H]1C(=O)N1CCN(c2ccccc2)CC1" Criterion not met

Does the reported pIC50 for "Cc1cc(C2=CCN(C(=O)[C@H]3NCC4(CC4)C[C@@H]3C(=O)NO)CC2)cc(C)c1C#N" fall at or above the 6 mark? Criterion not met

----------
# study.target: Disintegrin and metalloproteinase domain-containing protein 10 (Homo sapiens, UniProt O14672)
# Sequence (O14672 whole entry): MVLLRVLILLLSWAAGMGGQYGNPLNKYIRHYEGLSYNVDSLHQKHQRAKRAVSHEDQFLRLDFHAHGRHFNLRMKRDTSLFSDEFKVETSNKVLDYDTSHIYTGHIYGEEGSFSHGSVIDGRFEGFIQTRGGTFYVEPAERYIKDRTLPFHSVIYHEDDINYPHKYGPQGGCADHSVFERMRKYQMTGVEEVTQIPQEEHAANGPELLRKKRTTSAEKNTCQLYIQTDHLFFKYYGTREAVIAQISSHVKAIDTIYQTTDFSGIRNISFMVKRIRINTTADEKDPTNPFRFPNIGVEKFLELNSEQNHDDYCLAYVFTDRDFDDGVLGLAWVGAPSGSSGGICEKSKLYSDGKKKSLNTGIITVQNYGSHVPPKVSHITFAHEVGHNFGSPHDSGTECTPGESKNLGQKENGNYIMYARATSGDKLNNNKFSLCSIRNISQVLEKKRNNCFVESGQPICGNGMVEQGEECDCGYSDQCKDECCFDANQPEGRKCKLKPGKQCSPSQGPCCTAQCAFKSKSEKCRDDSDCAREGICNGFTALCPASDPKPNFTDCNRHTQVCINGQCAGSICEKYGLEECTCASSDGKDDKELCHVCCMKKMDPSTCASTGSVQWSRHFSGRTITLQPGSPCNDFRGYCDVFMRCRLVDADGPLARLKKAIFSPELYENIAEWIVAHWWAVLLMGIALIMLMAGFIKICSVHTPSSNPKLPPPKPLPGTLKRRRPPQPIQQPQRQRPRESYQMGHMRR
# assay.procedure: Binding affinity to ADAM10
So basically: is IC50 under 30 nM? Then met. Not under? Then not met.

Given the entry "COC(=O)N1CC2(CC2)C[C@H](C(=O)NO)[C@H]1C(=O)N1CC=C(c2ccccc2)C1" , would its reported IC50 be below 30 nM? met

Could you please tell me whether IC50 recorded for "COc1cccc(C2=CCN(C(=O)[C@H]3NCC4(CC4)C[C@@H]3C(=O)NO)CC2)c1" is less than 30 nM? not met

Confirm or reject: IC50 of "COC(=O)N1CC2(CC2)C[C@H](C(=O)NO)[C@H]1C(=O)N1CCC(c2ccccc2)CC1" lies strictly below 30 nM met

IC50 strictly < 30 nM for this compound? "O=C(NO)[C@H]1CC2(CC2)CN[C@@H]1C(=O)N1CC=C(c2cc(F)cc(F)c2)CC1" met

Consider "O=C(NO)[C@H]1CC2(CC2)CN(C(=O)OCc2ccccc2)[C@@H]1C(=O)N1CC=C(c2ccccc2)CC1" . Does its IC50 lie strictly below 30 nM? not met

Find out if reported IC50 for "CC(C)c1cccc(C2=CCN(C(=O)[C@H]3NCC4(CC4)C[C@@H]3C(=O)NO)CC2)c1" is less than 30 nM not met

# check: IC50 < 30 nM for COC(=O)N1CC2(CC2)C[C@H](C(=O)NO)[C@H]1C(=O)N1CCC(c2ccccc2)C1 (some centres not stated) not met

----------
# study.target: Stromelysin-1 (Homo sapiens)
# Sequence (P08254 whole entry): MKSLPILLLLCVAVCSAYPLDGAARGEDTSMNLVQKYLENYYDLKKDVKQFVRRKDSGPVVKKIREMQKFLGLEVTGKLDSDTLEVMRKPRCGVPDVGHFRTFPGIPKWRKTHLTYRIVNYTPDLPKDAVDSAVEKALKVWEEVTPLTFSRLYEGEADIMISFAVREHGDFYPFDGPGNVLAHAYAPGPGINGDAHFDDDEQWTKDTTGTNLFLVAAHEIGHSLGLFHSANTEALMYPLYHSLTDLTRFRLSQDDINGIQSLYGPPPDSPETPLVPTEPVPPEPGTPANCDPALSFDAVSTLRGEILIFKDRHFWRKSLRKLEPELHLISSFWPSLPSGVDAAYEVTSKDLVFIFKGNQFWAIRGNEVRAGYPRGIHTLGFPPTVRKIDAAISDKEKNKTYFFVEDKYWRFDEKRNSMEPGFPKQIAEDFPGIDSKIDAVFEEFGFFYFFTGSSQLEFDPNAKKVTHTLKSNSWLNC
I'd appreciate it if you could supply IC50 values for the items below.

Test item "Cc1cc(C2=CCN(C(=O)[C@H]3NCC4(CC4)C[C@@H]3C(=O)NO)CC2)cc(C)c1C#N" ; Stromelysin-1 (Homo sapiens); reported IC50 was 3.5 µM

For the compound "Cc1cc(C)cc(C2=CCN(C(=O)[C@H]3NCC4(CC4)C[C@@H]3C(=O)NO)CC2)c1" , the measured IC50 on Stromelysin-1 (Homo sapiens) was > 5 µM

Item "CS(=O)(=O)N1CC2(CC2)C[C@H](C(=O)NO)[C@H]1C(=O)N1CCN(c2ccccc2)CC1" ; assay system Stromelysin-1 (Homo sapiens); IC50 reported as > 5 µM

Record O=C(NO)[C@H]1CC2(CC2)CN[C@@H]1C(=O)N1CCC(c2ccccc2)C1 (stereo not given in full) ; system Stromelysin-1 (Homo sapiens); IC50 = > 3 µM

Lab note: compound "CC(=O)N1CC2(CC2)C[C@H](C(=O)NO)[C@H]1C(=O)N1CC=C(c2ccccc2)CC1" tested on Stromelysin-1 (Homo sapiens); recorded IC50 was > 5 µM

Item: "O=C(NO)[C@H]1CC2(CC2)CN(C(=O)OC2CCOCC2)[C@@H]1C(=O)N1CCN(c2ccccc2)CC1" | System: Stromelysin-1 (Homo sapiens) | IC50: 4 µM

Summary: "CC(C)COC(=O)N1CC2(CC2)C[C@H](C(=O)NO)[C@H]1C(=O)N1CC=C(c2ccccc2)CC1" , Stromelysin-1 (Homo sapiens), IC50 = 2.6 µM

Measured on Stromelysin-1 (Homo sapiens), "CC(C)c1cccc(C2CCN(C(=O)[C@H]3NCC4(CC4)C[C@@H]3C(=O)NO)CC2)c1" has a documented IC50 of > 5 µM

Tested system Stromelysin-1 (Homo sapiens); IC50 recorded for "Cc1cccc(C2CCN(C(=O)[C@H]3NCC4(CC4)C[C@@H]3C(=O)NO)CC2)c1" was > 5 µM

Summary line: "CS(=O)(=O)N1CC2(CC2)C[C@H](C(=O)NO)[C@H]1C(=O)N1CC=C(c2ccccc2)CC1" , Stromelysin-1 (Homo sapiens), reported IC50 = > 5 µM

----------
# assay.procedure: Half life in mouse
# Format: ADME, organism-based
# test.conditions: in vivo
measure: half-life (h)
Kindly provide the numeric value in h only, without the unit symbol.

Form: compound = "COC(=O)N1CC2(CC2)C[C@H](C(=O)NO)[C@H]1C(=O)N1CC=C(c2ccccc2)C1" ; half-life = 1.8

----------
# study.target: Disintegrin and metalloproteinase domain-containing protein 10 (Homo sapiens, UniProt O14672)
# Sequence (O14672 whole entry): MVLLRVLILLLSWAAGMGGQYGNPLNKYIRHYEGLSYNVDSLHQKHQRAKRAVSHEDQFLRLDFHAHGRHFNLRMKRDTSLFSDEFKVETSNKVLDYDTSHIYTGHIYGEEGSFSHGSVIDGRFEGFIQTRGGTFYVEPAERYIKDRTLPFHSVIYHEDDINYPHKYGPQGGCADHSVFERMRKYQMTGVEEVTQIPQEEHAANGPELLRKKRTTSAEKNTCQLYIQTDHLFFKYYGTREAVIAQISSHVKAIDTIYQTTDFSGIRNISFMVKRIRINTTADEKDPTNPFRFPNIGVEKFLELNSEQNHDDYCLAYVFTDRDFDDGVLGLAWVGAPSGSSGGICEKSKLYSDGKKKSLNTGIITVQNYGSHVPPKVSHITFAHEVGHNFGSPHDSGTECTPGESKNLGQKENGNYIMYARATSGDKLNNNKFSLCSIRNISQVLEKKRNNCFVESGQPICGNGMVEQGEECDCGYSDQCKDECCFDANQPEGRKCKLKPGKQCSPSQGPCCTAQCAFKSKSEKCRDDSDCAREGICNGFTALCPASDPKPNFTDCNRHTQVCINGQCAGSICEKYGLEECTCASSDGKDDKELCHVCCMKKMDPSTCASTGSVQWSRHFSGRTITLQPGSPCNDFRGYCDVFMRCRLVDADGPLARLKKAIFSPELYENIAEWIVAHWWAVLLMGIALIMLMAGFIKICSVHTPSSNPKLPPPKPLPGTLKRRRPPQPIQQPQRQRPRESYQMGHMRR
# assay.procedure: Inhibition of HER2 sheddase in BT474 cells by extracellular domain shedding assay
# Assay type: cell-based, BT-474
measure: IC50 (nM)
Report as a plain number; the unit nM is understood.

Form field IC50, entry "Cc1cccc(N2CCN(C(=O)[C@H]3NCC4(CC4)C[C@@H]3C(=O)NO)CC2)c1" : 184

// IC50 lookup, compound = "COc1cccc(C2=CCN(C(=O)[C@H]3NCC4(CC4)C[C@@H]3C(=O)NO)CC2)c1" , result: 194

The value of IC50 measured for the compound "O=C(NO)[C@H]1CC2(CC2)CN(C(=O)OC2CCOCC2)[C@@H]1C(=O)N1CCN(c2ccccc2)CC1" turned out to be 26

For this compound ( "Cc1cccc(C2=CCN(C(=O)[C@H]3NCC4(CC4)C[C@@H]3C(=O)NO)CC2)c1" ), measured IC50 is 42

Query "O=C(NO)[C@H]1CC2(CC2)CN(C(=O)OCc2ccccc2)[C@@H]1C(=O)N1CC=C(c2ccccc2)CC1" yields IC50 of 431

Lab note: "CC(C)c1cccc(C2=CCN(C(=O)[C@H]3NCC4(CC4)C[C@@H]3C(=O)NO)CC2)c1" gave IC50 of 229
